target: JAK2 (Homo sapiens (Human), UniProt O60674); assay: JAK2 activity inhibition assay (radioactive kinase assay / Caliper assay); type: biochemical
Sequence (O60674 whole entry): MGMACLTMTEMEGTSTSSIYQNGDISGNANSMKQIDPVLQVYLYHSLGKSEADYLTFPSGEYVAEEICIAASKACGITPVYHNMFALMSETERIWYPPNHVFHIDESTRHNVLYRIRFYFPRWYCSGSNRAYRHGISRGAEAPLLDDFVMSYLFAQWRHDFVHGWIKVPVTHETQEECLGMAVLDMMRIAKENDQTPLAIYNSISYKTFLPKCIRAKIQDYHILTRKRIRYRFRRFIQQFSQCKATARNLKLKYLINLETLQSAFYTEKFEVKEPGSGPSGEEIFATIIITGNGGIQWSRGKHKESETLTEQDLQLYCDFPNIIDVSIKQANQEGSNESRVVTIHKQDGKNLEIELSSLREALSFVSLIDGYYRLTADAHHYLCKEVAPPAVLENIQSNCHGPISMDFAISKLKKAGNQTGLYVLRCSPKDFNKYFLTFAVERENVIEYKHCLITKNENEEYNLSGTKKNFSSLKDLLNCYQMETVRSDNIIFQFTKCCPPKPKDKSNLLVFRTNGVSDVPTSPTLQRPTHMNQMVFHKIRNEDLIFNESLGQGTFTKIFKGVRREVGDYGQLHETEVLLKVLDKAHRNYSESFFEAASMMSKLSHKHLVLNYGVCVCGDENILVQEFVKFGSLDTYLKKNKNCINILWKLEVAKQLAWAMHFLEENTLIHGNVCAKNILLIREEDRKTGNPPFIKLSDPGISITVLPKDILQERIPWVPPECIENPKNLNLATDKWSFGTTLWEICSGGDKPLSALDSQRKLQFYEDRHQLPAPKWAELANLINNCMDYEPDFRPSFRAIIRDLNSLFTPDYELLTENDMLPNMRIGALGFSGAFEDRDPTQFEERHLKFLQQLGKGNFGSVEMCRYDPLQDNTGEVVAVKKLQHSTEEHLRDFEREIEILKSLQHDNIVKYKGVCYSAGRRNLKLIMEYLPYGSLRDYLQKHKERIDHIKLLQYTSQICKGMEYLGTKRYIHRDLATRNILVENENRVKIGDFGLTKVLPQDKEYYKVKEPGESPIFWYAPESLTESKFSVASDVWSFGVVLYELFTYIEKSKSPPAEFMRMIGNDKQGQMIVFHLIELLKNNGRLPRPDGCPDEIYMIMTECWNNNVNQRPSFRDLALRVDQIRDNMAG
test readout: Ki

structure string | study system | Ki
O=C1NCc2nc(-c3c(F)cccc3F)nc(Nc3ccc(CC(=O)N4CCN(CC(F)F)CC4)cc3)c21 | JAK2 (Homo sapiens (Human), UniProt O60674) | 10 to 100 nM

Now turn to the next compound.
## Input Form: Entry = CN1CCN(C(=O)Cc2ccc(Nc3nc(-c4c(F)cccc4F)nc4c3C(=O)NC4)cc2)CC1 | System = JAK2 (Homo sapiens (Human), UniProt O60674) | Ki = ____
## Output 10 to 100 nM

---

target: TYK2 (Homo sapiens (Human))
Sequence (P29597 whole entry): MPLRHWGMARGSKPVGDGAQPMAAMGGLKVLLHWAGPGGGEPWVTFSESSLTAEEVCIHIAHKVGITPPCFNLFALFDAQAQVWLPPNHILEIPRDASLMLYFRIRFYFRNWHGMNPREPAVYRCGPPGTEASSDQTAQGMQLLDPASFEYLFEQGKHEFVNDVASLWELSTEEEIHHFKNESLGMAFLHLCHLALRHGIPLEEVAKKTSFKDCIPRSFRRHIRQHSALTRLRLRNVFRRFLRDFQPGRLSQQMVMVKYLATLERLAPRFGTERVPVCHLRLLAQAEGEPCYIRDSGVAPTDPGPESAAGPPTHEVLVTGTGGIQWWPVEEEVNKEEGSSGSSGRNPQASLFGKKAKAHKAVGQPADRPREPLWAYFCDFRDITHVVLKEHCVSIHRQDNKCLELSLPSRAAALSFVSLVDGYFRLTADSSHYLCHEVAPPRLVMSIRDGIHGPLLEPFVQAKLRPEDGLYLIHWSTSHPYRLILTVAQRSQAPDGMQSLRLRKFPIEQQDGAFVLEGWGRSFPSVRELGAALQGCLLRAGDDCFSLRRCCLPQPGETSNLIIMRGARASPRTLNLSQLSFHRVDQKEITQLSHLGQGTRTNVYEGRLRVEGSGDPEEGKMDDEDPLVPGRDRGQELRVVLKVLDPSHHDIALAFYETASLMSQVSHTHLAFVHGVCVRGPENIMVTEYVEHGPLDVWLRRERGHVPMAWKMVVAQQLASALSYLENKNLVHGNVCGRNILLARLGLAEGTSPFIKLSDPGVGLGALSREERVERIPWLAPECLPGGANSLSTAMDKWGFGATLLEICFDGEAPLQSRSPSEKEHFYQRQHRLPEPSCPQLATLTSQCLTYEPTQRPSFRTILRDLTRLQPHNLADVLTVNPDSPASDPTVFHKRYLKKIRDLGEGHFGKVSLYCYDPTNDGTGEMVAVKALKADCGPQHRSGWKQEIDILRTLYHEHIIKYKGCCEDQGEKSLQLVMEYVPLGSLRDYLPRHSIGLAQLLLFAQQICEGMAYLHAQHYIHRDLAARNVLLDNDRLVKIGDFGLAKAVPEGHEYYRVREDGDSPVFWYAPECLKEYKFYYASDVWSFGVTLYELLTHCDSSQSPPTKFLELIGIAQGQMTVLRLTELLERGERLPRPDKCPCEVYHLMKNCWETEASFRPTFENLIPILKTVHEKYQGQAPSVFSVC
pKi: −log10 of the molar value.
test readout: pKi

Consider the worked cases shown below.
molecule | pKi
CN1CCN(c2ccc(Nc3cc(-c4c(F)cccc4F)nc4c3C(=O)NC4)nc2)CC1 | > 8.00
COC(=O)Cc1ccc(Nc2nc(-c3c(F)cccc3F)nc3c2C(=O)NC3)cn1 | 6.00 to 7.00
CC(C(=O)O)c1ccc(Nc2nc(-c3c(F)cccc3F)nc3c2C(=O)NC3)cc1 (stereo not shown) | > 8.00
O=C1NCc2nc(-c3c(F)cccc3F)cc(Nc3ccc(OCCN4CCC4)cn3)c21 | > 8.00

Now turn to the next molecule.
## Input Form: Entry = CC(C(=O)N1CCCCC1)c1ccc(Nc2nc(-c3c(F)cccc3F)nc3c2C(=O)NC3)cc1 (stereo not shown) | System = TYK2 (Homo sapiens (Human)) | pKi = ____
## Output > 8.00

---

target: JAK2 (Homo sapiens (Human), UniProt O60674); test: JAK2 activity inhibition assay (radioactive kinase assay / Caliper assay); assay type: biochemical; details: read-out: JAK2 Ki
test readout: Ki

## Input Give the measured Ki of C[C@@H]1CCC[C@H](C)N1c1ccc(Nc2cc(-c3c(F)cccc3F)nc3c2C(=O)NC3)nc1 .
## Output 10 to 100 nM

## Input Give the measured Ki of O=C(Cc1ccc(Nc2nc(-c3c(F)cccc3F)nc3c2C(=O)NC3)cc1)NC1CCNCC1 .
## Output 100 to 1000 nM

## Input Give the measured Ki of O=C(Cc1ccc(Nc2nc(-c3c(F)cccc3F)nc3c2C(=O)NC3)cc1)NC1CCOCC1 .
## Output 100 to 1000 nM

## Input Give the measured Ki of O=C1NCc2nc(-c3c(F)cccc3F)nc(Nc3ccc([C@H]4CCN(C5CCC5)C4=O)cc3)c21 .
## Output 100 to 1000 nM

## Input Give the measured Ki of N#Cc1cc(Cl)c(-c2nc3c(c(Nc4ccc(CC(=O)O)cc4)n2)C(=O)NC3)c(Cl)c1 .
## Output 100 to 1000 nM

## Input Give the measured Ki of O=C1NCc2nc(-c3c(F)cccc3F)nc(Nc3ccc(Cn4ccnn4)cc3)c21 .
## Output 100 to 1000 nM

---

In what follows, each item is paired with its Ki for TYK2 (Homo sapiens (Human), UniProt P29597).

Consider the worked cases shown below.
compound | Ki
CN1C(=O)[C@@](C)(c2ccc(Nc3nc(-c4c(F)cccc4F)nc4c3C(=O)NC4)cc2)CC1(C)C [Compound I-222] | < 10 nM
O=C1NCc2nc(-c3c(F)cccc3F)nc(Nc3ccc(CC(=O)N4CCN(CC(F)F)CC4)cc3)c21 [Compound I-78] | < 10 nM
CN1CCN[C@@](C)(c2ccc(Nc3cc(-c4c(F)cccc4F)nc4c3C(=O)NC4)nc2)C1=O [Compound I-225] | < 10 nM

## Input Form: Entry = O=C1NCc2nc(-c3c(F)cccc3F)nc(Nc3ccc([C@H]4CCCNC4=O)cc3)c21 [Compound I-154] | System = TYK2 (Homo sapiens (Human), UniProt P29597) | Ki = ____
## Output < 10 nM

## Input Form: Entry = O=C(O)Cc1ccc(Nc2nc(-c3c(Cl)cccc3Cl)nc3c2C(=O)NC3)cc1 [Compound I-6] | System = TYK2 (Homo sapiens (Human), UniProt P29597) | Ki = ____
## Output < 10 nM

## Input Form: Entry = O=C1NCc2nc(-c3c(F)cccc3F)nc(Nc3ccc([C@H]4CCNC4=O)cc3)c21 [Compound I-86] | System = TYK2 (Homo sapiens (Human), UniProt P29597) | Ki = ____
## Output < 10 nM

## Input Form: Entry = CN(C(=O)Cc1ccc(Nc2nc(-c3c(F)cccc3F)nc3c2C(=O)NC3)cc1)C1CCNCC1 [Compound I-22] | System = TYK2 (Homo sapiens (Human), UniProt P29597) | Ki = ____
## Output < 10 nM
